assay.notes: NCI Yeast Anticancer Drug Screen. Data for the wt1 strain (AID 149);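 further: 0% = growth of vehicle-treated wt1 cultures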
protocol.conditions: S. cerevisiae wt1 strain (SPY 50644) growth inhibition; at 100.0 µM
The panel holds about 79,000 compounds, 15% with a hit somewhere; the sample as a whole holds those more often. Activity calls are given as the source filed them. No stated cut-off is given here; in the data, active means growth inhibition above about 70%; inactive means the rest.
Outcome codes: 1.0 for active, 0.0 for inactive

INSERT INTO assay_data (molecule, class) VALUES
  ('CC1(c2ccccc2)O[C@@H]2C[C@H]3[C@@H]4CCC5=CC(=O)C=C[C@]5(C)[C@@]4(F)[C@@H](O)C[C@]3(C)[C@]2(C(=O)CO)O1 (some centres undefined)', 1.0),
  ('Cc1cc(OCc2nc(N)nc(N)c2-c2ccc(Cl)c(Cl)c2)ccc1[N+](=O)[O-]', 0.0),
  ('O=[N+]([O-])c1ccc(S(=O)(=O)Cc2ccccc2)c([N+](=O)[O-])c1', 1.0),
  ('CC(C)(CN1CCCCC1)C(=O)/C=C/c1c(Cl)cccc1Cl', 1.0),
  ('CSc1nc(-c2ccccc2)nc(=[N+]2CCOCC2)s1', 1.0),
  ('CCC[CH2][Sn]([CH2]CCC)([CH2]CCC)/[C](=C/[Si](C)(C)c1ccccc1)c1ccc2c(c1)OCO2', 1.0),
  ('O=C1SS(=O)c2ccccc21 (centres undefined)', 0.0),
  ('COc1ccc(C2CC(C)(N3CCCC3)Oc3cc4c(cc32)OCO4)cc1 (centres undefined)', 0.0),
  ('Cc1c(C(=O)/C=C/c2ccccc2[N+](=O)[O-])[n+](=O)c2ccccc2n1[O-]', 0.0);
